# Tested on: FMOC06 (patient-derived mucinous ovarian cancer cells)
# Test Method Notes: drug sensitivity score (DSS3, normalised partial AUC of % inhibition dose-response) (DSS (score)); higher = more sensitive (stronger inhibition of viability); extreme values may be limits of the assay
# Condition Notes: 72 h; library: FO5A; assay format: 2D, 384-well, CellTiter-Glo
Endpoint Label: drug sensitivity score
Respond numerically, and do not add a unit to the figure.

Answered examples (3):
[
  {
    "Compound": "COc1cccc2c1C(=O)c1c(O)c3c(c(O)c1C2=O)C[C@@](O)(C(=O)CO)C[C@@H]3O[C@H]1C[C@H](N)[C@@H](O)[C@H](C)O1 [Epirubicin]",
    "drug sensitivity score": 4.2
  },
  {
    "Compound": "CNC(=O)[C@@H](NC(=O)[C@H](CC(C)C)[C@H](O)C(=O)NO)C(C)(C)C",
    "drug sensitivity score": 0
  },
  {
    "Compound": "CNC(=O)c1ccccc1Nc1nc(Nc2ccc3c(c2OC)CCC[C@H](N2CCN(CCO)CC2)C3)ncc1Cl",
    "drug sensitivity score": 10.3
  }
]

From here, focus on the item given below.
Problem: Give the measured drug sensitivity score of CC1(C)CNc2cc(NC(=O)c3cccnc3NCc3ccncc3)ccc21 .
Solution: 1.1

* * *

Some compounds, each annotated with its measured drug sensitivity score.
# Tested on: FMOC09 (patient-derived high-grade serous ovarian cancer cells)
# Test Method Notes: drug sensitivity score (DSS3, normalised partial AUC of % inhibition dose-response) (DSS (score)); higher = more sensitive (stronger inhibition of viability); extreme values may be limits of the assay
# Condition Notes: 72 h; library: FO5A; assay format: 2D, 384-well, CellTiter-Glo
Number, no unit, nothing else.

[
  {
    "Compound": "O=C(O)CC1CC(c2ccccc2)=NO1 (stereo not drawn)",
    "drug sensitivity score": 0
  },
  {
    "Compound": "Cn1cc(CNCC2CCN(c3ncc(C(=O)NO)cn3)CC2)c2ccccc21",
    "drug sensitivity score": 4.8
  }
]

Problem: Value wanted: drug sensitivity score (FMOC09) of entry CCn1c(-c2nonc2N)nc2c(C#CC(C)(C)O)ncc(OC[C@H]3CCCNC3)c21
Solution: 2.4

* * *

# System: FMOC09
# Test Method Notes: drug sensitivity score (DSS3, normalised partial AUC of % inhibition dose-response) (DSS (score)); higher = more sensitive (stronger inhibition of viability); extreme values may be limits of the assay
# Condition Notes: 72 h; library: FO5A; assay format: 2D, 384-well, CellTiter-Glo
Reported drug sensitivity score maps to class as: band 1 (below 0.1), band 2 (0.1 to below 4), band 3 (4 or more)

Solved entries:
[
  {
    "Compound": "COc1cc2nccc(Oc3ccc(NC(=O)NC4CC4)c(Cl)c3)c2cc1C(N)=O",
    "Study System": "FMOC09",
    "Classification": "band 1"
  },
  {
    "Compound": "N#CC1(c2ccc(NC(=O)c3cccnc3NCc3ccncc3)cc2)CCCC1",
    "Study System": "FMOC09",
    "Classification": "band 1"
  },
  {
    "Compound": "O=C(CCCCCCC(=O)Nc1ccccc1)NO",
    "Study System": "FMOC09",
    "Classification": "band 2"
  },
  {
    "Compound": "NC1(c2ccc(-c3nc4ccn5c(=O)[nH]nc5c4cc3-c3ccccc3)cc2)CCC1",
    "Study System": "FMOC09",
    "Classification": "band 2"
  },
  {
    "Compound": "COC(=O)c1ccc2c(c1)NC(=O)/C2=C(\\Nc1ccc(N(C)C(=O)CN2CCN(C)CC2)cc1)c1ccccc1",
    "Study System": "FMOC09",
    "Classification": "band 3"
  }
]

Problem: In plain terms, what class is CC1(C)CCC(CN2CCN(c3ccc(C(=O)NS(=O)(=O)c4ccc(NCC5CCOCC5)c([N+](=O)[O-])c4)c(Oc4cnc5[nH]ccc5c4)c3)CC2)=C(c2ccc(Cl)cc2)C1 ?
Solution: band 1

Problem: Now the same for O=C(/C=C\n1cnc(-c2cc(C(F)(F)F)cc(C(F)(F)F)c2)n1)NNc1ccccn1 [Verdinexor]
Solution: band 3

Problem: Entry to check: CC[C@@H]1C(=O)N(C)c2cnc(Nc3ccc(C(=O)NC4CCN(C)CC4)cc3OC)nc2N1C1CCCC1
Solution: band 3

Problem: Also, CN(C)C/C=C/C(=O)Nc1cc2c(Nc3ccc(F)c(Cl)c3)ncnc2cc1O[C@H]1CCOC1 please.
Solution: band 3

Problem: Next up: CO[C@H]1CC[C@H](N2C(=O)CNc3ncc(-c4ccc(C(C)(C)O)nc4)nc32)CC1
Solution: band 2

Problem: One more compound: COCCOc1cnc2ccn([C@H](C)c3nnc4c(F)cc(-c5cnn(C)c5)cn34)c(=O)c2c1
Solution: band 1

Problem: Item: CCN(CC)CCNC(=O)c1c(C)[nH]c(/C=C2\C(=O)Nc3ccc(F)cc32)c1C
Solution: band 1

Problem: // next record C[C@@H]1COCCN1c1cc(C2([S@](C)(=N)=O)CC2)nc(-c2cc[nH]c3nccc2-3)n1
Solution: band 3

Problem: CCCCOc1nc(N)c2c(n1)N(Cc1cccc(CN3CCCC3)c1)CC(=O)N2 ?
Solution: band 2

Problem: Please give the result for NC(=S)N/N=C/c1ncccc1N too.
Solution: band 2

* * *

Measured drug sensitivity score of individual entries
# Test system: FMOC22 (patient-derived mucinous ovarian cancer cells)
# Test Method Notes: drug sensitivity score (DSS3, normalised partial AUC of % inhibition dose-response) (DSS (score)); higher = more sensitive (stronger inhibition of viability); extreme values may be limits of the assay
# Condition Notes: 72 h; library: FO5A; assay format: 2D, 384-well, CellTiter-Glo
// no unit, no text: just the number

The cases that follow already have their drug sensitivity score on record.
[
  {
    "Compound": "O=C(/C=C\\n1cnc(-c2cc(C(F)(F)F)cc(C(F)(F)F)c2)n1)NNc1cnccn1 [Selinexor]",
    "Study System": "FMOC22",
    "drug sensitivity score": 18.9
  },
  {
    "Compound": "CCCCNc1ncc(C(=O)NCc2ccc(-n3ccnc3)cc2)c(NC2CCC(O)CC2)n1 (stereo not drawn)",
    "Study System": "FMOC22",
    "drug sensitivity score": 0.4
  },
  {
    "Compound": "CC[C@@H]1C(=O)N(C)c2cnc(Nc3ccc(C(=O)N[C@H]4CC[C@H](N5CCN(CC6CC6)CC5)CC4)cc3OC)nc2N1C(C)C",
    "Study System": "FMOC22",
    "drug sensitivity score": 3.9
  },
  {
    "Compound": "CCN1CCN(Cc2ccc(Nc3ncc(F)c(-c4cc(F)c5nc(C)n(C(C)C)c5c4)n3)nc2)CC1",
    "Study System": "FMOC22",
    "drug sensitivity score": 0
  },
  {
    "Compound": "CCC1=C[C@@H]2CN(C1)Cc1c([nH]c3ccccc13)[C@@](C(=O)OC)(c1cc3c(cc1OC)N(C)[C@H]1[C@@](O)(C(=O)OC)[C@H](OC(C)=O)[C@]4(CC)C=CCN5CC[C@]31[C@@H]54)C2",
    "Study System": "FMOC22",
    "drug sensitivity score": 16.3
  },
  {
    "Compound": "CN(C(=O)c1ccc(F)cc1C(F)(F)F)C1CCN(c2nnc(-c3ccnn3C)c3ccccc23)CC1",
    "Study System": "FMOC22",
    "drug sensitivity score": 0
  },
  {
    "Compound": "O=C(O)CCCCC(CCSCc1ccccc1)SCc1ccccc1 (stereo not drawn)",
    "Study System": "FMOC22",
    "drug sensitivity score": 0
  }
]

Problem: Quick one: drug sensitivity score for O=C(O)CC[C@H]1CC[C@@](c2cc(F)ccc2F)(S(=O)(=O)c2ccc(Cl)cc2)CC1 ?
Solution: 0

* * *

# System: FMOC03 (patient-derived mucinous ovarian cancer cells)
# Test Method Notes: drug sensitivity score (DSS3, normalised partial AUC of % inhibition dose-response) (DSS (score)); higher = more sensitive (stronger inhibition of viability); extreme values may be limits of the assay
# Condition Notes: 72 h; library: FO5A; assay format: 2D, 384-well, CellTiter-Glo
The reader will find reported drug sensitivity score values listed item by item below.

These solved cases illustrate the format of a correct answer.
[
  {
    "Compound": "CC[C@H](CC#N)OC(=O)N[C@@H](C)c1cccc(NC(=O)Nc2ccc(-c3cnco3)c(OC)c2)c1",
    "drug sensitivity score": 13.4
  },
  {
    "Compound": "CO[C@H](C(=O)[C@@H](O)[C@@H](C)O)[C@@H]1Cc2cc3cc(O[C@H]4C[C@@H](O[C@@H]5C[C@@H](O)[C@H](O)[C@@H](C)O5)[C@H](O)[C@@H](C)O4)c(C)c(O)c3c(O)c2C(=O)[C@H]1O[C@H]1C[C@@H](O[C@@H]2C[C@@H](O)[C@@H](O[C@@H]3C[C@](C)(O)[C@H](O)[C@@H](C)O3)[C@@H](C)O2)[C@H](O)[C@@H](C)O1",
    "drug sensitivity score": 4.6
  }
]

Problem: Recorded drug sensitivity score of Cc1cc(C)c(CNC(=O)c2cc(-c3ccc(CN4CCOCC4)cc3)cc3c2cnn3C2CCCC2)c(=O)[nH]1 , please.
Solution: 0.6

Problem: Request: NC(=O)/C(=C/n1cnc(-c2cc(C(F)(F)F)cc(C(F)(F)F)c2)n1)c1cncnc1 [Eltanexor]
Solution: 12.5

Problem: Also, CC[C@H](C)C(=O)O[C@H]1C[C@H](O)C=C2C=C[C@H](C)[C@H](CC[C@@H](O)C[C@@H](O)CC(=O)O)[C@H]21 please.
Solution: 0

Problem: Next: Cc1[nH]nc(C(F)(F)F)c1Cc1sc2c(c1C(=O)N1C[C@](C)(O)CO1)c(=O)n(C)c(=O)n2C(C)C
Solution: 0
